Molecular target: T1, CRBN, Q96SW2;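 note: pooled lentiviral library of zinc finger degron-EGFP fusions in mCherry-positive Jurkat cells, FACS-sorted after compound exposure, with degron abundance counted by next-generation sequencing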
T1 chain: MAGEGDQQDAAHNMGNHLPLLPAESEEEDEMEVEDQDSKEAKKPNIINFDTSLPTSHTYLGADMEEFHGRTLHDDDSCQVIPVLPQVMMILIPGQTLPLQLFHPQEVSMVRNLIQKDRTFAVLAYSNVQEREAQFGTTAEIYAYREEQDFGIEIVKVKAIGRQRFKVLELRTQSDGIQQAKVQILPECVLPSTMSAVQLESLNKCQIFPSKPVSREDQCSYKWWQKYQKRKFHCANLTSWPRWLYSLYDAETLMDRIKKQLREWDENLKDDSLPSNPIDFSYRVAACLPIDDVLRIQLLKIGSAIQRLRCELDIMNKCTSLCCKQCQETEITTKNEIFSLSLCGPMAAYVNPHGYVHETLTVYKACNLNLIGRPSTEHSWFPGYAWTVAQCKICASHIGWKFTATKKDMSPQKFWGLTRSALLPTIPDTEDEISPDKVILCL
Assay: log2 fold change of degron read counts, EGFP-low vs EGFP+ sorted cells (limma voom), compound-induced degradation; higher = more compound-induced degradation of the degron-EGFP fusion; degrons are variants of IKZF1/3 zinc finger 2; compound dose not given here
Conditions: Jurkat; 18 h; compound: compound 19 (5-tert-butyl-thalidomide)
The full ranking holds about 8,300 sequences; the median of “log2 fold change of degron read counts, EGFP-low vs EGFP+ sorted cells (limma voom), compound-induced degradation” is about -1.1, and the highest 2% start at about 3.2. The sample holds the highest values, similar sequences and a random draw of the others, so the mix is not that of the screen.
ENDPOINT: log2 fold change of degron read counts
Reply: number alone, nothing else.

Reported log2 fold change of degron read counts, sequence FVCDICGARFTQKGNLLRHIKL [46F_47V_49D_50I_52G_53A_54R_55F_67L_, Q9UKT9] : ____ 0.23

Which log2 fold change of degron read counts reading was recorded for the sequence FMCSVCGHCFTQKGNLLRHIKL [46F_47M_49S_50V_52G_53H_54C_55F_67L_, Q9UKT9] ? -2.46

Entry under review: FYCNQCGRCFTQKGNLLRHIKL [46F_47Y_49N_50Q_52G_53R_54C_55F_67L_, Q9UKT9] . Reported log2 fold change of degron read counts? -1.93

Give its log2 fold change of degron read counts value. Item: FQCPICGAIFTQKGNLLRHIKL [46F_47Q_49P_50I_52G_53A_54I_55F_67L_, Q9UKT9] -0.241

Given the sequence FECEICGRSFTQKGNLLRHIKL [46F_47E_49E_50I_52G_53R_54S_55F_67L_, Q9UKT9] , what is its reported log2 fold change of degron read counts? -2.51

Item LECEICGFGCTQKGNLLRHIKL [46L_47E_49E_50I_52G_53F_54G_55C_67L_, Q9UKT9] has what recorded log2 fold change of degron read counts? -0.956

Bench note: what log2 fold change of degron read counts did LFCNQCGFTCTQKGNLLRHIKL [46L_47F_49N_50Q_52G_53F_54T_55C_67L_, Q9UKT9] show? -0.962

Please give the measured log2 fold change of degron read counts for this sequence: FLCEICGRIFTQKGNLLRHIKL [46F_47L_49E_50I_52G_53R_54I_55F_67L_, Q9UKT9] -1.35

If you can, please state the reported log2 fold change of degron read counts value of FYCDICGARFTQKGNLLRHIKL [46F_47Y_49D_50I_52G_53A_54R_55F_67L_, Q9UKT9] . 3.31

Any idea what log2 fold change of degron read counts was measured for FVCPICGAIFTQKGNLLRHIKL [46F_47V_49P_50I_52G_53A_54I_55F_67L_, Q9UKT9] ? -0.598

I am curious: what log2 fold change of degron read counts value has been reported for FGCNQCGHHFTQKGNLLRHIKL [46F_47G_49N_50Q_52G_53H_54H_55F_67L_, Q9UKT9] ? -2.24

Cited source for all entries: the supplement of paper PMC12645437
